As shown below, each of these molecules has a reported TP value.
- Organism: Rattus norvegicus
- test.summary: Open TG-GATES - Regimen: Single
- Type: toxicity, organism-based, Sprague-Dawley
- Parameters: regimen Single, gender Male, age 6 weeks
- experimental.conditions: in vivo, po, 0 mg/kg, 9 h, tissue Plasma, route gavage, dose level Control

[
  {
    "molecule": "CN/C(=N/CCSCc1nc[nH]c1C)NC#N [CIMETIDINE]",
    "TP": "5.4 g/dL"
  },
  {
    "molecule": "Nc1c2c(nc3ccccc13)CCCC2 [TACRINE]",
    "TP": "5.4 g/dL"
  },
  {
    "molecule": "Cc1nnc2n1-c1ccc(Cl)cc1C(c1ccccc1Cl)=NC2 [TRIAZOLAM]",
    "TP": "5.1 g/dL"
  },
  {
    "molecule": "CC(C)NNC(=O)c1ccncc1 [IPRONIAZID]",
    "TP": "5.5 g/dL"
  },
  {
    "molecule": "CNC(=C[N+](=O)[O-])NCCSCc1ccc(CN(C)C)o1 [RANITIDINE]",
    "TP": "5.5 g/dL"
  },
  {
    "molecule": "CCOc1ccc(NC(C)=O)cc1 [PHENACETIN]",
    "TP": "5.4 g/dL"
  }
]

====

- Organism: Rattus norvegicus
- test.summary: Open TG-GATES - Regimen: Single
- Type: toxicity, organism-based, Sprague-Dawley
- Parameters: regimen Single, gender Male, age 6 weeks
- experimental.conditions: in vivo, po, 100 mg/kg, 24 h, tissue Plasma, route gavage, dose level Low

[
  {
    "molecule": "CNC(=C[N+](=O)[O-])NCCSCc1ccc(CN(C)C)o1 [RANITIDINE]",
    "A/G": 1.5
  },
  {
    "molecule": "CN/C(=N/CCSCc1nc[nH]c1C)NC#N [CIMETIDINE]",
    "A/G": 1.7
  },
  {
    "molecule": "O=C(OC[C@H]1O[C@@H](OC(=O)c2cc(O)c(O)c(OC(=O)c3cc(O)c(O)c(O)c3)c2)[C@H](OC(=O)c2cc(O)c(O)c(OC(=O)c3cc(O)c(O)c(O)c3)c2)[C@@H](OC(=O)c2cc(O)c(O)c(OC(=O)c3cc(O)c(O)c(O)c3)c2)[C@@H]1OC(=O)c1cc(O)c(O)c(OC(=O)c2cc(O)c(O)c(O)c2)c1)c1cc(O)c(O)c(OC(=O)c2cc(O)c(O)c(O)c2)c1 [TANNIC ACID]",
    "A/G": 2
  },
  {
    "molecule": "Cc1nnc2n1-c1ccc(Cl)cc1C(c1ccccc1Cl)=NC2 [TRIAZOLAM]",
    "A/G": 0.9
  }
]

====

As shown below, each of these compounds has a reported Eos value.
- Species on record: Rattus norvegicus
- test.summary: Open TG-GATES - Regimen: Daily Repeat
- Assay type: toxicity, organism-based, Sprague-Dawley
- Set-up: regimen Daily Repeat, gender Male, age 6 weeks
- experimental.conditions: in vivo, po, 300 mg/kg, […], tissue Blood, route gavage, dose level Middle, time 14 day

[
  {
    "given.smiles": "CN/C(=N/CCSCc1nc[nH]c1C)NC#N",
    "result.units": "%",
    "Eos": 1
  },
  {
    "given.smiles": "CCOc1ccc(NC(C)=O)cc1",
    "result.units": "%",
    "Eos": 1
  },
  {
    "given.smiles": "O=C(OC[C@H]1O[C@@H](OC(=O)c2cc(O)c(O)c(OC(=O)c3cc(O)c(O)c(O)c3)c2)[C@H](OC(=O)c2cc(O)c(O)c(OC(=O)c3cc(O)c(O)c(O)c3)c2)[C@@H](OC(=O)c2cc(O)c(O)c(OC(=O)c3cc(O)c(O)c(O)c3)c2)[C@@H]1OC(=O)c1cc(O)c(O)c(OC(=O)c2cc(O)c(O)c(O)c2)c1)c1cc(O)c(O)c(OC(=O)c2cc(O)c(O)c(O)c2)c1",
    "result.units": "%",
    "Eos": 1.2
  },
  {
    "given.smiles": "Cc1nnc2n1-c1ccc(Cl)cc1C(c1ccccc1Cl)=NC2",
    "result.units": "%",
    "Eos": 1
  },
  {
    "given.smiles": "COC(=O)C1=C(C)NC(C)=C(C(=O)OC)C1c1ccccc1[N+](=O)[O-]",
    "result.units": "%",
    "Eos": 1
  },
  {
    "given.smiles": "CNC(=C[N+](=O)[O-])NCCSCc1ccc(CN(C)C)o1",
    "result.units": "%",
    "Eos": 0.8
  }
]

====

As shown below, each of these molecules has a reported TBIL value.
- Organism: Rattus norvegicus
- test.summary: Open TG-GATES - Regimen: Daily Repeat
- Assay type: toxicity, organism-based, Sprague-Dawley
- Set-up: regimen Daily Repeat, gender Male, age 6 weeks
- experimental.conditions: in vivo, po, 300 mg/kg, 72 h, tissue Plasma, route gavage, dose level Middle, time 3 day

[
  {
    "given.smiles": "COC(=O)C1=C(C)NC(C)=C(C(=O)OC)C1c1ccccc1[N+](=O)[O-]",
    "TBIL / mg/dL": 0.03
  },
  {
    "given.smiles": "Cc1nnc2n1-c1ccc(Cl)cc1C(c1ccccc1Cl)=NC2",
    "TBIL / mg/dL": 0.048
  },
  {
    "given.smiles": "CN/C(=N/CCSCc1nc[nH]c1C)NC#N",
    "TBIL / mg/dL": 0.2
  },
  {
    "given.smiles": "O=C(OC[C@H]1O[C@@H](OC(=O)c2cc(O)c(O)c(OC(=O)c3cc(O)c(O)c(O)c3)c2)[C@H](OC(=O)c2cc(O)c(O)c(OC(=O)c3cc(O)c(O)c(O)c3)c2)[C@@H](OC(=O)c2cc(O)c(O)c(OC(=O)c3cc(O)c(O)c(O)c3)c2)[C@@H]1OC(=O)c1cc(O)c(O)c(OC(=O)c2cc(O)c(O)c(O)c2)c1)c1cc(O)c(O)c(OC(=O)c2cc(O)c(O)c(O)c2)c1",
    "TBIL / mg/dL": 0.3
  },
  {
    "given.smiles": "CNC(=C[N+](=O)[O-])NCCSCc1ccc(CN(C)C)o1",
    "TBIL / mg/dL": 0.1
  },
  {
    "given.smiles": "CCOc1ccc(NC(C)=O)cc1",
    "TBIL / mg/dL": 0.044
  }
]

====

- Species: Rattus norvegicus
- test.summary: Open TG-GATES - Regimen: Daily Repeat
- Format: toxicity, organism-based, Sprague-Dawley
- Set-up: regimen Daily Repeat, gender Male, age 6 weeks
- experimental.conditions: in vivo, po, 1000 mg/kg, 72 h, tissue Blood, route gavage, dose level High, time 3 day

[
  {
    "given.smiles": "O=C(OC[C@H]1O[C@@H](OC(=O)c2cc(O)c(O)c(OC(=O)c3cc(O)c(O)c(O)c3)c2)[C@H](OC(=O)c2cc(O)c(O)c(OC(=O)c3cc(O)c(O)c(O)c3)c2)[C@@H](OC(=O)c2cc(O)c(O)c(OC(=O)c3cc(O)c(O)c(O)c3)c2)[C@@H]1OC(=O)c1cc(O)c(O)c(OC(=O)c2cc(O)c(O)c(O)c2)c1)c1cc(O)c(O)c(OC(=O)c2cc(O)c(O)c(O)c2)c1",
    "result.units": "x10_4/ul",
    "RBC": 621.4
  },
  {
    "given.smiles": "CN/C(=N/CCSCc1nc[nH]c1C)NC#N",
    "result.units": "x10_4/ul",
    "RBC": 620.4
  },
  {
    "given.smiles": "Cc1nnc2n1-c1ccc(Cl)cc1C(c1ccccc1Cl)=NC2",
    "result.units": "x10_4/ul",
    "RBC": 650.2
  }
]

====

- Organism: Rattus norvegicus
- test.summary: Open TG-GATES - Regimen: Single
- Assay type: toxicity, organism-based, Sprague-Dawley
- Parameters: regimen Single, gender Male, age 6 weeks
- experimental.conditions: in vivo, po, 100 mg/kg, 3 h, tissue Plasma, route gavage, dose level Low
As shown below, each of these compounds has a reported AST value.
experimental.endpoint: AST (IU/L)

[
  {
    "compound": "CN/C(=N/CCSCc1nc[nH]c1C)NC#N [CIMETIDINE]",
    "experimental.endpoint": "AST",
    "test.result": 70.2
  },
  {
    "compound": "COC(=O)C1=C(C)NC(C)=C(C(=O)OC)C1c1ccccc1[N+](=O)[O-] [NIFEDIPINE]",
    "experimental.endpoint": "AST",
    "test.result": 78.6
  },
  {
    "compound": "O=C(OC[C@H]1O[C@@H](OC(=O)c2cc(O)c(O)c(OC(=O)c3cc(O)c(O)c(O)c3)c2)[C@H](OC(=O)c2cc(O)c(O)c(OC(=O)c3cc(O)c(O)c(O)c3)c2)[C@@H](OC(=O)c2cc(O)c(O)c(OC(=O)c3cc(O)c(O)c(O)c3)c2)[C@@H]1OC(=O)c1cc(O)c(O)c(OC(=O)c2cc(O)c(O)c(O)c2)c1)c1cc(O)c(O)c(OC(=O)c2cc(O)c(O)c(O)c2)c1 [TANNIC ACID]",
    "experimental.endpoint": "AST",
    "test.result": 70.2
  },
  {
    "compound": "Cc1nnc2n1-c1ccc(Cl)cc1C(c1ccccc1Cl)=NC2 [TRIAZOLAM]",
    "experimental.endpoint": "AST",
    "test.result": 75.4
  },
  {
    "compound": "CNC(=C[N+](=O)[O-])NCCSCc1ccc(CN(C)C)o1 [RANITIDINE]",
    "experimental.endpoint": "AST",
    "test.result": 66.6
  }
]
